Reference for the values: patent US7838580B2

assay: Differential thermal analysis (decomposition temperature); type: physicochemical; conditions: ° C. for 2% weight loss
Reported DTA (decomposition in differential thermal analysis) values are given for each entry in this list.
Answer in °C, number only, no unit symbol.

compound.structure.string	unit.label	measured
CCCCCCCCOC(=O)CCP(C)(=O)[O-].CCCCCCCCOC(=O)CCP(C)(=O)[O-].[Zn+2]	°C	323

DTA (decomposition in differential thermal analysis) for COC(=O)CCP(C)(=O)[O-].COC(=O)CCP(C)(=O)[O-].[Ca+2] is 317

----------
experiment: Differential thermal analysis (decomposition temperature); type: physicochemical; conditions: ° C. for 2% weight loss
Reported DTA (decomposition in differential thermal analysis) values are given for each entry in this list.
Answer in °C, number only, no unit symbol.

Some molecules with recorded DTA (decomposition in differential thermal analysis):
molecule	measured
COC(=O)CCP(C)(=O)[O-].COC(=O)CCP(C)(=O)[O-].[Zn+2] [Example 12, H3C—P(═O)(OZn1/2)—CH2—CH2—CO2CH3]	334
COC(=O)CCP(C)(=O)[O-].COC(=O)CCP(C)(=O)[O-].COC(=O)CCP(C)(=O)[O-].[Al+3] [Example 10, H3C—P(═O)(OAl1/3)—CH2—CH2—CO2CH3]	330

Lab note: next molecule to report on.
DTA (decomposition in differential thermal analysis) for COC(=O)CCP(C)(=O)[O-].COC(=O)CCP(C)(=O)[O-].[Mg+2] [Example 11, H3C—P(═O)(OMg1/2)—CH2—CH2—CO2CH3] is 282
